Measured values drawn from PubChem BioAssay for this set.

- Target Under Test: Calmodulin-1 (Homo sapiens)
- Assay Remarks: calcium-bound CALM1 binders on microarrays, profiling panel, artefact control for SMM control-protein annotation, biochemical, small-molecule microarray, Cy5-labelled CALM1, plus calcium (AID 1112);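 further: score merges spot fluorescence with signal to noise from triplicate slides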
- Details: Cy5-CALM1 binding fluorescence, higher = more signal
Assay Endpoint: composite z-score
The answer should be a number; do not append a unit.

Past entries and their recorded results:
* [N-]=[N+]=Nc1ccccc1C[C@]1(C(=O)NCc2ccccc2)N=C(c2ccc(OCCCO)cc2)O[C@H]1c1ccccc1 | 0.848
* O=C1NC(=O)C2C1C=CC(C(O)c1ccc3c(c1)OCO3)N2Nc1ccccn1 (centres undefined) | -0.197
* COCCOC(=O)N1C(=O)[C@@]2(c3cc(C#CC4(O)CCCCCC4)ccc31)[C@H](C(N)=O)[C@H]1C(=O)O[C@H](c3ccccc3)[C@H](c3ccccc3)N1[C@@H]2c1ccccc1OCCO | -0.0174

Moving on to the next molecule.
// query Given the entry CC=CC(O)C1C=CC2C(=O)N(c3ccccc3)C(=O)C2N1Nc1ccc([N+](=O)[O-])cc1 (centres undefined) , report its measured composite z-score.
// result -0.654

----------
- Assay Remarks: basal S. cerevisiae growth modulation, no modifier, primary screen, OD600, strain BY4716, 24 h, basal condition (AID 1173)
- Details: OD600, 24 h, called active from +8 up or from −8 down
Active and inactive are the calls of the source.
Bench note: report the call from T = active, F = inactive

# example entries with known answers
* C=C(CCCC)/C(=C/C[C@@H](OC(C)=O)c1ccc(CO)o1)c1cc(C(=O)OC)ccc1OC | F
* Cc1ccc(S[C@]2(C(=O)NC3CC3)CC(=O)N(Cc3ccccc3Cl)[C@@H]2c2ccc(CO)cc2I)cc1 | F
* COc1ccc(CCNC(=O)[C@@]2(Sc3ccc(C)cc3)CC(=O)N(Cc3cc(C(F)(F)F)cc(C(F)(F)F)c3)[C@@H]2c2ccc(CO)cc2I)cc1 | F
* O=C1NCC(=O)N2[C@@H]1C[C@@H](C(=O)O)[C@H]2c1ccc(O)cc1 | F
* NC(=O)N1C(=O)C2C(C1=O)C1C=C(c3ccc(CO)cc3)C2C(C2CC2)N1Cc1sc2ccccc2c1Cl (stereo not drawn) | F
* CCOC(=O)C[C@H]1[C@H](OC(=O)Cc2ccc3c(c2)OCO3)[C@@H](NC(=O)Cc2ccc(OC)cc2)c2cc(OCCCO)ccc2N1C(=O)c1ccccc1 | F

// query Returns: the outcome recorded for COC(=O)[C@H](Cc1ccccc1)N1CC(/C=C/C2CC2)=C[C@@H]1[C@@H](O)Cc1ccccc1 in this assay.
// result F

// query Call for entry Cc1ccc(F)cc1S(=O)(=O)N[C@@H]1CCN(Cc2ccc(Oc3ccccc3)cc2)C1 :
// result T

----------
- Assay Remarks: binders of probe aFGF2 on microarray, primary screen, stem cell growth factor project, biochemical, small-molecule microarray, fluorescence 635/667 (AID 1067);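 further: measures binding of biotinylated aFGF2 protein to printed compounds on slides; z-score merges feature fluorescence and signal-to-noise across triplicate slides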
- Details: higher = more signal
Assay Endpoint: composite z-score
I'd appreciate a reply containing only the number, no unit.

• COc1cc(OC)c(C(O)C2C=CC3C(=O)N(c4ccccc4)C(=O)C3N2Nc2ccc(C#N)cc2)cc1Br (stereo not given) = 0.353

// query Fill blank: measured composite z-score of the molecule CN(C)CCCNC(=O)[C@@H]1c2ccccc2C(=O)N(CC23CC4CC(CC(C4)C2)C3)[C@H]1c1ccc(CO)cc1 is ____.
// result 0.0878

// query For C=C(C(=O)CC[C@H](OC(=O)c1cccnc1)c1ccc(CO)o1)C(C)C , what is its reported composite z-score?
// result -0.0415

// query Tell me the measured composite z-score of COC(=O)[C@@]1(Cc2ccc(OC)cc2)[C@H]2c3cc(C(=O)N(C)C)n(CCc4c[nH]c5ccc(O)cc45)c3C[C@H]2CN1C(=O)c1ccccc1 , please.
// result 0.147

// query Value lookup for composite z-score; key = CCCC[C@@H]1C[C@H]1[C@@H](NC(=O)c1cccnc1)c1ccc(-c2ccccc2)cc1
// result -0.124

----------
- Assay Remarks: osmotic lysis modulators in infected erythrocytes, primary screen, PSAC antagonist project, cell-based, P. falciparum Indochina, OD700, 3 h (AID 1156)
- Details: higher = more signal, called active from +8 up or from −8 down
# if value of z-score reaches 0.4, tag label 1; if it stays below, tag label 0

Solved entries (count: 8):
• CN(C)CCCNC(=O)[C@@]1(c2ccc([N+](=O)[O-])cc2)CC(=O)N(CC23CC4CC(CC(C4)C2)C3)[C@@H]1c1ccc(CO)cc1 = label 0
• CCCCC(CC)C(O)C1C=CC2C(=O)N(c3ccccc3)C(=O)C2N1Nc1ccc([N+](=O)[O-])cc1 (centres undefined) = label 0
• COc1ccc([Si](C)(C)[C@@H]2[C@@H](CCO)O[C@]3(C(=O)N(Cc4cccc(N5C(=O)c6cccc7cccc5c67)c4)c4ccccc43)[C@H]2C)cc1 = label 0
• COC(=O)[C@H](Cc1ccccc1)N1CC(/C=C/C2CC2)=C[C@@H]1[C@@H](O)Cc1ccccc1 = label 0
• CC=CC(O)C1C=CC2C(=O)N(C)C(=O)C2N1Nc1ccc([N+](=O)[O-])cc1[N+](=O)[O-] (centres undefined) = label 1
• COCCCNC(=O)[C@]1(CCC(=O)OC(C)(C)C)N=C(c2ccc(OCCCO)cc2)O[C@@H]1c1ccccc1 = label 1
• Cc1ccc(S[C@]2(C(=O)NCCN3CCOCC3)CC(=O)N(Cc3ccccc3C(F)(F)F)[C@@H]2c2ccc(CO)cc2I)cc1 = label 1
• C=C(C(=O)CC[C@H](OC(=O)c1cccnc1)c1cccc(OCCO)c1)C(C)C = label 1

// query Is z-score for CC(C)OC(=O)CC(=O)CC(O)c1cccc(C#N)c1 (centres undefined) at or above 0.4?
// result label 0

// query For this molecule, is measured z-score 0.4 or higher? CC(C)C(O)C1C=CC2C(=O)N(C)C(=O)C2N1Nc1ccccc1 (centres undefined)
// result label 1

// query Textbook exercise: given the entry CON(C)C(=O)C=C1C[C@@H](c2cccc(Cl)c2)O[C@@H](c2cccc(Cl)c2)O1 , state whether its z-score is greater than or equal to 0.4.
// result label 0

----------
Reported z-score values are given for each entry in this list.
- Assay Remarks: Plasmodium falciparum growth inhibition, primary screen, strain 3D7, DAPI fluorescence, 100 nL (AID 1184);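 further: parasites grown inside human red blood cells in medium with human serum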
- Details: P. falciparum 3D7 growth, 3 d, higher = more signal
Respond using a number only.

• COCCOC(=O)N1C(=O)[C@@]2(c3cc(C#CC4(O)CCCCCC4)ccc31)[C@H](C(=O)N1CCCCCCC1)[C@H]1C(=O)O[C@H](c3ccccc3)[C@H](c3ccccc3)N1[C@@H]2c1ccc(OCCO)cc1 = -2.3

// query Quick check: z-score of COCC(=C=CC[C@H](O)c1cccc(OCCO)c1)C[C@H](O)c1ccccn1 ?
// result -0.737

// query Requested read-out: z-score. Entry: C=CCNC(=O)[C@@H]1[C@H]2C(=O)O[C@H](c3ccccc3)[C@H](c3ccccc3)N2[C@H](c2ccc(OCCO)cc2)[C@@]12C(=O)N(C(=O)OCCOC)c1ccc(C#CC3=CCCCC3)cc12
// result -2.19

// query Which z-score value is on record for COc1ccc([Si](C)(C)[C@H]2[C@H](CCn3cc([C@H](O)c4ccccc4)nn3)O[C@@]3(C(=O)N(Cc4ccc(N5CCOC5=O)cc4)c4ccccc43)[C@@H]2C)cc1 ?
// result -2.29

// query What value of measured z-score is listed for CC(C)CNC(=O)[C@@]1(c2ccc([N+](=O)[O-])cc2)CC(=O)N(C2CCCCC2)[C@@H]1c1ccc(CO)cc1I ?
// result -0.923

// query So what's the measured z-score for this one? Cc1ccc(S[C@]2(C(=O)NCC(C)C)CC(=O)N(Cc3ccccc3Cl)[C@@H]2c2ccc(CO)cc2I)cc1
// result -0.548

----------
- Target Under Test: Torsin-1A-interacting protein 1 (Homo sapiens) (UniProt Q5JTV8)
- Sequence (Q5JTV8 whole entry, looked up): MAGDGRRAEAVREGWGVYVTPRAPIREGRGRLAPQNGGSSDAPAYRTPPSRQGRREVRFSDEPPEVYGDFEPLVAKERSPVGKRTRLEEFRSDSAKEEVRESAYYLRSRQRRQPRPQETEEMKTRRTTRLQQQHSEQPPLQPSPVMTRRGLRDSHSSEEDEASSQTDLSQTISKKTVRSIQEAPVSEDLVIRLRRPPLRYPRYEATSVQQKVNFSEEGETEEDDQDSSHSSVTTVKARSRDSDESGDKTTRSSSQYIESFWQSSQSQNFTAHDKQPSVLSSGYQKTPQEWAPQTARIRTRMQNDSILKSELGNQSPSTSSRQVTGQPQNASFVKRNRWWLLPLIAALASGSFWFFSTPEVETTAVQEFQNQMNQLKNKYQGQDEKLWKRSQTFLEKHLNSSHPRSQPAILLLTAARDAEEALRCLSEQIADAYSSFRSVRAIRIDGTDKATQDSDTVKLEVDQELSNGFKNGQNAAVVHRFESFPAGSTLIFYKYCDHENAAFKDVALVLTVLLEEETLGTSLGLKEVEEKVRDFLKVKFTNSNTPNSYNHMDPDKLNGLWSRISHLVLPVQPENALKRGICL
- Assay Remarks: LAP1 binders from COS7 cell lysate, primary screen, small-molecule microarray, 635/667 nm fluorescence (AID 1116)
- Details: COS7-hLAP1 lysate binding, 635 nm fluorescence, higher = more signal
Assay Endpoint: composite z-score
Write the value as a bare number.

* CC[C@@H]1[C@H]2C3C(=O)N(CC)C(=O)C3CC(=O)[C@H]2[C@H](c2ccc(C)cc2)N1S(=O)(=O)c1ccc(C)cc1 (stereo partly drawn) | -0.154

// query Name the recorded composite z-score for CC(C)C(=C=CC[C@H](O)c1ccc(OCCO)cc1)C[C@H](O)c1cc(Cl)cc(Cl)c1O .
// result 0.413

// query I have this compound here, O=C1NC(=O)C2C1C=CC(C(O)c1cc(C(F)(F)F)cc(C(F)(F)F)c1)N2Nc1ccc(Cl)cc1Cl (stereo not drawn) , and I need its recorded composite z-score.
// result 1.86

// query Field request: composite z-score | item: C[C@]12C(=O)N(CCCCCCO)[C@@H]3C(=O)N(c4ccc(Cl)cc4)CC=CC31O[C@@H]1/C=C\CCCOC(=O)C12 (stereo partly drawn)
// result 0.121

// query Which composite z-score is listed for C=CCOC(=O)[C@H]1[C@@H]2C(=O)O[C@@H](c3ccccc3)[C@@H](c3ccccc3)N2[C@@H](c2ccc(OCCOC(=O)[C@H]3C[C@H]4C(=O)N[C@@H](Cc5ccccc5)C(=O)N4[C@H]3c3cccc(OCCO)c3)cc2)[C@]12C(=O)Nc1ccc(I)cc12 ?
// result 1.25

// query Please look up its composite z-score: [N-]=[N+]=Nc1ccccc1[C@H]1OC(c2ccc(OCCCO)cc2)=N[C@@]1(CCS(=O)(=O)c1ccccc1)C(=O)N1CCCCC1
// result 1.27

// query Item under review: C=CCOC(=O)[C@@H]1[C@H]2C(=O)O[C@H](c3ccccc3)[C@H](c3ccccc3)N2[C@H](c2ccc(OCCOC(=O)[C@H]3C[C@H]4C(=O)N[C@@H](CCCCN(C)C)C(=O)N4[C@H]3c3cccc(OCCO)c3)cc2)[C@@]12C(=O)Nc1ccc(I)cc12 . Reported composite z-score?
// result 1.03

// query Requested read-out: composite z-score. Entry: COC(=O)[C@@]1(Cc2ccc(F)cc2)[C@H]2c3cc(C(=O)N4CCCC4)n(CCc4c[nH]c5ccc(OC)cc45)c3C[C@H]2CN1C(=O)c1ccccc1
// result 0.781

// query Look at this compound and give its reported composite z-score. C=CCNC(=O)[C@H]1[C@@H]2C(=O)O[C@@H](c3ccccc3)[C@@H](c3ccccc3)N2[C@@H](c2ccccc2OCCO)[C@]12C(=O)N(C(=O)OCCOC)c1ccc(C#CC3=CCCCC3)cc12
// result 0.794

// query Endpoint output: composite z-score of O=C(O)[C@H]1C[C@H]2C(=O)N3CCC[C@H]3C(=O)N2[C@H]1c1cccc(OCCO)c1 . Value?
// result 0.83

// query Could you tell me which composite z-score is on file for O=C1C[C@@](C(=O)NCC(F)(F)F)(c2ccc([N+](=O)[O-])cc2)[C@@H](c2ccc(CO)cc2)N1C1CCCCC1 ?
// result 1.9

// query Which composite z-score is reported for this compound? CC(C)C(CO)N1C(=O)[C@]2(C)C3C(=O)OCCC/C=C\[C@H]3OC23C=CCN(c2ccc(Cl)cc2)C(=O)[C@@H]13 (stereo partly drawn)
// result -0.0952

// query composite z-score lookup needed for C=C(CCCC)C(=O)CC[C@@H](OC(=O)c1cccnc1)c1ccccc1OCCO , thanks.
// result 0.684
